- System: Staphylococcus aureus
- assay_name: Antibacterial activity against Staphylococcus aureus MTCC 2901 after 24 hr by tube dilution method
- Type: functional
measured_metric: -logMIC

{"smiles_representation": "O=S(=O)(O)c1cc(O)c(/N=C/c2ccccc2)c2ccccc12", "experimental_system": "Staphylococcus aureus", "value_measured": 1.12}
{"smiles_representation": "COc1cccc(/C=N/c2c(O)cc(S(=O)(=O)O)c3ccccc23)c1O", "experimental_system": "Staphylococcus aureus", "value_measured": 1.17}
{"smiles_representation": "COc1ccccc1/C=N/c1c(O)cc(S(=O)(=O)O)c2ccccc12", "experimental_system": "Staphylococcus aureus", "value_measured": 1.16}
{"smiles_representation": "COc1cccc(/C=N/c2c(O)cc(S(=O)(=O)O)c3ccccc23)c1", "experimental_system": "Staphylococcus aureus", "value_measured": 1.16}
{"smiles_representation": "O=CCCC/C=N/c1c(O)cc(S(=O)(=O)O)c2ccccc12", "experimental_system": "Staphylococcus aureus", "value_measured": 1.11}
{"smiles_representation": "O=S(=O)(O)c1cc(O)c(/N=C/c2cccc(Cl)c2)c2ccccc12", "experimental_system": "Staphylococcus aureus", "value_measured": 1.16}
{"smiles_representation": "O=Cc1ccc(/C=N/c2c(O)cc(S(=O)(=O)O)c3ccccc23)cc1", "experimental_system": "Staphylococcus aureus", "value_measured": 1.15}
{"smiles_representation": "COc1ccc(/C=N/c2c(O)cc(S(=O)(=O)O)c3ccccc23)cc1", "experimental_system": "Staphylococcus aureus", "value_measured": 1.16}
{"smiles_representation": "CCn1cc(C(=O)O)c(=O)c2cc(F)c(N3CCNCC3)cc21", "experimental_system": "Staphylococcus aureus", "value_measured": 2.61}

meta.source: ChEMBL document CHEMBL3045260
